Origin of measurements: paper PMC8362126

Biological target: MIF (Homo sapiens, UniProt P14174)
Experiment: MIF degradation in A549 cells, cell lysate-based ELISA
Parameters: endogenous in cells; host or cells: A549 (ATCC CCL-185)
Conditions: A549 cells, 2 µM, 12 h, vs DMSO, mean±SD n=3
Quantity name: degradation [%] 2 μM

# Molecule, degradation [%] 2 μM
data = [
    ("O=C1CCC(N2C(=O)c3cccc(NC(=O)CCCCc4cn(CCC(=O)Nc5ccc(-c6cc7ccc(O)cc7oc6=O)cc5)nn4)c3C2=O)C(=O)N1 (stereo not drawn)", "n.s."),
    ("O=C1CCC(N2C(=O)c3cccc(NC(=O)CCCc4cn(CCC(=O)Nc5ccc(N6Cc7ccc(O)cc7OC6=O)cc5)nn4)c3C2=O)C(=O)N1 (stereo not drawn)", "n.s."),
    ("O=C1CCC(N2C(=O)c3cccc(NCc4cn(CCC(=O)Nc5ccc(N6Cc7ccc(O)cc7OC6=O)cc5)nn4)c3C2=O)C(=O)N1 (stereo not drawn)", "55±9%"),
    ("O=C1CCC(N2C(=O)c3cccc(NCCCCC(=O)Nc4ccc(N5Cc6ccc(O)cc6OC5=O)cc4)c3C2=O)C(=O)N1 (stereo not drawn)", "n.s."),
    ("O=C1CCC(N2C(=O)c3cccc(NC(=O)CCCc4cn(CC(=O)Nc5ccc(-c6cc7ccc(O)cc7oc6=O)cc5)nn4)c3C2=O)C(=O)N1 (stereo not drawn)", "n.s."),
]

// returns reported degradation [%] 2 μM for input O=C1CCC(N2C(=O)c3cccc(NCCCCCCC(=O)Nc4ccc(N5Cc6ccc(O)cc6OC5=O)cc4)c3C2=O)C(=O)N1 (stereo not drawn)
55±4%

----------
Molecular target: MIF (Homo sapiens, UniProt P14174)
Sequence (P14174 2-115 limits assumed): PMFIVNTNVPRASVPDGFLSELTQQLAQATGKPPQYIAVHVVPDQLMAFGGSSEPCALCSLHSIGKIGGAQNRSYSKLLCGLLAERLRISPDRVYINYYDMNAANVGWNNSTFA
Listing: IC50 of selected molecules
I only need the number, in nM, no unit after it.

# Molecule, IC50 (nM)
records = [
    ("CN1C(=O)CCC(N2C(=O)c3cccc(NCCCCCCCC(=O)Nc4ccc(N5Cc6ccc(O)cc6OC5=O)cc4)c3C2=O)C1=O (stereo not drawn) [MD15]", 83),
    ("O=C1CCC(N2C(=O)c3cccc(NC(=O)Cc4ccc(-n5cc(CCCC(=O)Nc6ccc(-c7cc8ccc(O)cc8oc7=O)cc6)nn5)cc4)c3C2=O)C(=O)N1 (stereo not drawn) [MD6]", 1500),
]

Turning to the following molecule.
// returns reported IC50 for input O=C1CCC(N2C(=O)c3cccc(NC(=O)CCCCc4cn(CC(=O)Nc5ccc(-c6cc7ccc(O)cc7oc6=O)cc5)nn4)c3C2=O)C(=O)N1 (stereo not drawn) [MD4]
233

----------
Target: UniProt:P14174
Sequence (P14174 2-115 limits assumed): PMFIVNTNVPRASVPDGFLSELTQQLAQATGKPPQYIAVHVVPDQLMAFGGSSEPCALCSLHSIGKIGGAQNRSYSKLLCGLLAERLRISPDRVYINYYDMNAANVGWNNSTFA
Experiment: MIF catalyzed 4-HPP tautomerization assay
Assay type: biochemical
Settings: MIF catalyzed 4-HPP tautomerization, n=3
Quantity name: log10(Ki) (log10 of the value in nM)
On a log10 scale: recorded Ki, unit nM.

// returns reported log10(Ki) for input O=C(CCCCNc1cccc2c1C(=O)N(C1CCC(=O)NC1=O)C2=O)NCc1ccc(N2Cc3ccc(O)cc3OC2=O)cc1 (stereo not drawn)
1.93

// returns reported log10(Ki) for input CN1C(=O)CCC(N2C(=O)c3cccc(NCCCCCCCC(=O)Nc4ccc(N5Cc6ccc(O)cc6OC5=O)cc4)c3C2=O)C1=O (stereo not drawn)
1.74

// returns reported log10(Ki) for input COc1ccc(-c2cc3ccc(O)cc3oc2=O)cc1 [compound 2, reference compound]
2.57

// returns reported log10(Ki) for input O=C1CCC(N2C(=O)c3cccc(NC(=O)CCc4cn(CC(=O)Nc5ccc(-c6cc7ccc(O)cc7oc6=O)cc5)nn4)c3C2=O)C(=O)N1 (stereo not drawn)
2.28

// returns reported log10(Ki) for input O=C1CCC(N2C(=O)c3cccc(NCCCCC(=O)Nc4ccc(N5Cc6ccc(O)cc6OC5=O)cc4)c3C2=O)C(=O)N1 (stereo not drawn)
1.74

// returns reported log10(Ki) for input O=C1CCC(N2C(=O)c3cccc(NC(=O)CCCCc4cn(CCC(=O)Nc5ccc(-c6cc7ccc(O)cc7oc6=O)cc5)nn4)c3C2=O)C(=O)N1 (stereo not drawn)
2.78

// returns reported log10(Ki) for input O=C1CCC(N2C(=O)c3cccc(NCCCCCCC(=O)Nc4ccc(N5Cc6ccc(O)cc6OC5=O)cc4)c3C2=O)C(=O)N1 (stereo not drawn)
1.71

// returns reported log10(Ki) for input O=C1CCC(N2C(=O)c3cccc(NC(=O)Cc4ccc(-n5cc(CCCC(=O)Nc6ccc(-c7cc8ccc(O)cc8oc7=O)cc6)nn5)cc4)c3C2=O)C(=O)N1 (stereo not drawn)
3.00

// returns reported log10(Ki) for input O=C1CCC(N2C(=O)c3cccc(NCCCCCCCC(=O)Nc4ccc(N5Cc6ccc(O)cc6OC5=O)cc4)c3C2=O)C(=O)N1 (stereo not drawn)
1.85

// returns reported log10(Ki) for input O=C(Cc1ccc(N2Cc3ccc(O)cc3OC2=O)cc1)NCc1cn(-c2ccc(CC(=O)Nc3cccc4c3C(=O)N(C3CCC(=O)NC3=O)C4=O)cc2)nn1 (stereo not drawn)
1.96

// returns reported log10(Ki) for input COc1ccc(N2Cc3ccc(O)cc3OC2=O)cc1OC
2.01

// returns reported log10(Ki) for input O=C1CCC(N2C(=O)c3cccc(NCCCCCCCCCC(=O)Nc4ccc(N5Cc6ccc(O)cc6OC5=O)cc4)c3C2=O)C(=O)N1 (stereo not drawn)
1.81

----------
Listing: pIC50 of selected molecules
Biological target: MIF (Homo sapiens, UniProt P14174)
Sequence (P14174 2-115 limits assumed): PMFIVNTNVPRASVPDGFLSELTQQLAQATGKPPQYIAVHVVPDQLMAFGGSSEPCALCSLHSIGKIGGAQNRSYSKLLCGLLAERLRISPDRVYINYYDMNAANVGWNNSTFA
Just the number, please; pIC50 means minus log10 of the concentration in mol/L.

Example results:
# Molecule, Quantity name, Assay result
rows = [
    ("O=C1CCC(N2C(=O)c3cccc(NC(=O)CCCCc4cn(CCC(=O)Nc5ccc(-c6cc7ccc(O)cc7oc6=O)cc5)nn4)c3C2=O)C(=O)N1 (stereo not drawn) [MD5]", "pIC50", 6.05),
    ("O=C1CCC(N2C(=O)c3cccc(NCCCCC(=O)Nc4ccc(N5Cc6ccc(O)cc6OC5=O)cc4)c3C2=O)C(=O)N1 (stereo not drawn) [MD7]", "pIC50", 7.09),
    ("O=C1CCC(N2C(=O)c3cccc(NCCCCCCCC(=O)Nc4ccc(N5Cc6ccc(O)cc6OC5=O)cc4)c3C2=O)C(=O)N1 (stereo not drawn) [MD13]", "pIC50", 6.97),
    ("O=C1CCC(N2C(=O)c3cccc(NCc4cn(CCC(=O)Nc5ccc(N6Cc7ccc(O)cc7OC6=O)cc5)nn4)c3C2=O)C(=O)N1 (stereo not drawn) [MD10]", "pIC50", 6.83),
    ("O=C(Cc1ccc(N2Cc3ccc(O)cc3OC2=O)cc1)NCc1cn(-c2ccc(CC(=O)Nc3cccc4c3C(=O)N(C3CCC(=O)NC3=O)C4=O)cc2)nn1 (stereo not drawn) [MD12]", "pIC50", 6.86),
]

// returns reported pIC50 for input O=C1CCC(N2C(=O)c3cccc(NCCCCCCCCCC(=O)Nc4ccc(N5Cc6ccc(O)cc6OC5=O)cc4)c3C2=O)C(=O)N1 (stereo not drawn) [MD14]
7.01

// returns reported pIC50 for input O=C1CCC(N2C(=O)c3cccc(NC(=O)CCCc4cn(CCC(=O)Nc5ccc(N6Cc7ccc(O)cc7OC6=O)cc5)nn4)c3C2=O)C(=O)N1 (stereo not drawn) [MD11]
6.84

// returns reported pIC50 for input O=C(CCCCNc1cccc2c1C(=O)N(C1CCC(=O)NC1=O)C2=O)NCc1ccc(N2Cc3ccc(O)cc3OC2=O)cc1 (stereo not drawn) [MD8]
6.89

// returns reported pIC50 for input O=C1CCC(N2C(=O)c3cccc(NCCCCCCC(=O)Nc4ccc(N5Cc6ccc(O)cc6OC5=O)cc4)c3C2=O)C(=O)N1 (stereo not drawn) [MD9]
7.12

----------
Target: MIF (Homo sapiens, UniProt P14174)
Experiment: MIF degradation in A549 cells, cell lysate-based ELISA
Parameters: endogenous in cells; host or cells: A549 (ATCC CCL-185)
Details: A549 cells, 2 µM, 12 h, vs DMSO, mean±SD n=3
Method: In addition, A549 cells have been successfully used for assessing activity of cereblon ligand‐based PROTACs previously.[42] […] The reduction in MIF levels were monitored in A549 cells that were treated with two different PROTAC concentrations (20 and 2 μM) for 12 h in order to estimate the dose dependency, which is important for PROTACs because of the Hook effect.[35] The MIF levels in cell lysates were analyzed using an enzyme‐linked immunosorbent assay (ELISA). […]
Quantity name: degradation [%] 2 μM

# Compound, Quantity name, Assay result
data = [
    ("O=C1CCC(N2C(=O)c3cccc(NC(=O)CCc4cn(CC(=O)Nc5ccc(-c6cc7ccc(O)cc7oc6=O)cc5)nn4)c3C2=O)C(=O)N1 (stereo not drawn)", "degradation [%] 2 μM", "n.s."),
    ("O=C1CCC(N2C(=O)c3cccc(NC(=O)Cc4ccc(-n5cc(CCCC(=O)Nc6ccc(-c7cc8ccc(O)cc8oc7=O)cc6)nn5)cc4)c3C2=O)C(=O)N1 (stereo not drawn)", "degradation [%] 2 μM", "n.s."),
    ("O=C1CCC(N2C(=O)c3cccc(NCCCCCCCCCC(=O)Nc4ccc(N5Cc6ccc(O)cc6OC5=O)cc4)c3C2=O)C(=O)N1 (stereo not drawn)", "degradation [%] 2 μM", "64±2%"),
]
